# Target of assay: UniProtKB O15244
# Sequence (O15244 whole entry): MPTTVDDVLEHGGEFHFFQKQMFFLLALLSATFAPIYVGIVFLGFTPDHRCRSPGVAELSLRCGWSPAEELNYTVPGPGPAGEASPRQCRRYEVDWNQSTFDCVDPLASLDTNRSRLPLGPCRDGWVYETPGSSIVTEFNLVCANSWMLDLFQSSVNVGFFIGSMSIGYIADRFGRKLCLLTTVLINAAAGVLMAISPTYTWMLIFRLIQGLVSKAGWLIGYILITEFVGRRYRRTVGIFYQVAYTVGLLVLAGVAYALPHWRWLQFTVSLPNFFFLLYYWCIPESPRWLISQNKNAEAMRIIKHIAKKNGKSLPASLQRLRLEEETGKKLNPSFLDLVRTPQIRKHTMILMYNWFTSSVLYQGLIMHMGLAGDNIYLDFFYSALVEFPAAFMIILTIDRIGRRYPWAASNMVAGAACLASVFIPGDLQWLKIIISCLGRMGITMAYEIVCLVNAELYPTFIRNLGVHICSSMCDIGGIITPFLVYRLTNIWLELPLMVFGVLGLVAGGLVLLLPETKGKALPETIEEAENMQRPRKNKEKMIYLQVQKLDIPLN
# Measurement description: Inhibition of OCT2-mediated [3H]MPP+ uptake in HEK-OCT2 cells
# Cond: human, pH 7.3, probe [3H]MPP+, 50 µM

[
  {
    "Compound": "O=C1[C@H](CC[C@H](O)c2ccc(F)cc2)[C@@H](c2ccc(O)cc2)N1c1ccc(F)cc1",
    "inhibition at 3 min, 200 µM [%]": -13.2
  },
  {
    "Compound": "N[C@@H](Cc1cc(I)c(Oc2cc(I)c(O)c(I)c2)c(I)c1)C(=O)O",
    "inhibition at 3 min, 200 µM [%]": -3.3
  },
  {
    "Compound": "COc1ccc2cccc(CCNC(C)=O)c2c1",
    "inhibition at 3 min, 200 µM [%]": 39.9
  },
  {
    "Compound": "COC(=O)C1=C(C)NC(C)=C(C(=O)OC(C)(C)CN(C)CCC(c2ccccc2)c2ccccc2)C1c1cccc([N+](=O)[O-])c1 (stereo not shown)",
    "inhibition at 3 min, 200 µM [%]": -9.3
  },
  {
    "Compound": "Oc1ncnc2[nH]ncc12",
    "inhibition at 3 min, 200 µM [%]": 52.7
  },
  {
    "Compound": "CCOc1nc2cccc(C(=O)O)c2n1Cc1ccc(-c2ccccc2-c2nnn[nH]2)cc1",
    "inhibition at 3 min, 200 µM [%]": -2.4
  },
  {
    "Compound": "COc1nc(C)nc(Cl)c1N=C1NCCN1",
    "inhibition at 3 min, 200 µM [%]": 23.1
  },
  {
    "Compound": "CCCc1nc(C(C)(C)O)c(C(=O)O)n1Cc1ccc(-c2ccccc2-c2nnn[nH]2)cc1",
    "inhibition at 3 min, 200 µM [%]": -21.9
  },
  {
    "Compound": "CCN1CCCC1CNC(=O)c1cc(S(=O)(=O)CC)c(N)cc1OC (stereo not shown) [Amisulpride]",
    "inhibition at 3 min, 200 µM [%]": 51.3
  },
  {
    "Compound": "C[C@]12CCC(=O)C=C1[C@@H]1C[C@@H]1[C@H]1[C@@H]3[C@@H]4C[C@@H]4[C@@]4(CCC(=O)O4)[C@@]3(C)CC[C@@H]12",
    "inhibition at 3 min, 200 µM [%]": 42.6
  }
]
